- Tested on: LOX IMVI melanoma
- assay-remarks: NCI-60 one-dose screen, 48 h (100 = growth as untreated, 0 = no growth, -100 = all killed)
- condition-context: 10 µM unless noted
- Description: Growth inhibition of the LOX IMVI human tumor cell line is measured as a screen for anti-cancer activity. Cells are grown in 96 well plates and exposed to the test compound for 48 hours. Compounds are tested at a single concentration, which is 10^-5 M for most compounds. The reported endpoint is percent growth (GI% or GIPRCNT), where numbers from 0 - 100% represent growth inhibition, and numbers from -100% - 0 represent cell death. For example, a value of 40 represents 60% growth inhibition. […]
This is part of a sample that, as a whole, favours compounds with a hit. Of some 83,000 tested, about 20% had one in any assay. The source made the active and inactive calls. How the source made its calls: active means growth percent below 10; inactive means the rest.
measurement-label: growth

| compound | test-system | observed-measurement |
| --- | --- | --- |
| CC(C)NCC(O)COc1ccc(CC(N)=O)cc1 (stereo not given) | LOX IMVI melanoma | 98.1% (inactive) |
| CCN(CC)CCC(C(=O)O)(c1ccccc1)c1ccccc1 | LOX IMVI melanoma | 95.7% (inactive) |
| CCCCCn1ncc(-c2c(O)c(O)cc3c(O)c(-c4c(C)cc5c(-c6cnn(CCCCC)n6)c(O)c(O)cc5c4O)c(C)cc23)n1 | LOX IMVI melanoma | -40.7% (active) |
| CNC(=O)NN | LOX IMVI melanoma | 102% (inactive) |
| CCCC(=O)Oc1ccc(/C(=C(\C)c2ccc(Cl)cc2)c2ccc(OCCN(CC)CC)cc2)cc1 | LOX IMVI melanoma | -98% (active) |
| O[C@@H]1CCO[C@H](c2ccc3ccccc3c2)C1 | LOX IMVI melanoma | 102% (inactive) |
| Cn1c2ccccc2c2ssc(=S)c21 | LOX IMVI melanoma | 91.9% (inactive) |
| CO[C@H]1/C=C/C=C/C=C/C[C@H](OC(=O)[C@@H](C)NC(=O)C2CCCCC2)[C@H](C)[C@@H](O)/C(C)=C\CCC2=CC(=O)C=C(NC(=O)C1)C2=O | LOX IMVI melanoma | -38.8% (active) |
| NC(=NCCCOc1ccc(F)cc1)Nc1ccc(Cl)c(Cl)c1 | LOX IMVI melanoma | 55.9% (inactive) |
| Nc1nc(-c2cc3c(cc2Cl)NC(=O)/C3=C/c2ccc(Cl)cc2)cs1 | LOX IMVI melanoma | 12.6% (inactive) |
